Species: Homo sapiens
measurement-protocol: Ratio of IC50 for Mer (unknown origin) to IC50 for Axl (unknown origin)
Listed molecules paired with reported Ratio IC50

[
  {
    "structure": "CC(C)n1cc(C(=O)Nc2ccc(Oc3ncnc4c3CCN(C3CCN(C)CC3)C4)c(F)c2)c(=O)n(-c2ccc(F)cc2)c1=O",
    "Ratio IC50": 5.5
  },
  {
    "structure": "CN1CCC(CN2CCc3c(ncnc3Oc3ccc(NC(=O)c4cn(CC5CC5)c(=O)n(-c5ccc(F)cc5)c4=O)cc3F)C2)CC1",
    "Ratio IC50": 33
  },
  {
    "structure": "Cc1ccc(-n2c(=O)c(C(=O)Nc3ccc(Oc4ncnc5c4CCN(CC4CCN(C)CC4)C5)c(F)c3)cn(C3CCCC3)c2=O)nc1",
    "Ratio IC50": 37
  },
  {
    "structure": "CC(C)n1cc(C(=O)Nc2ccc(Oc3ncnc4c3CCN(C)C4)c(F)c2)c(=O)n(-c2ccc(F)cc2)c1=O",
    "Ratio IC50": 80
  }
]
